tested on: U2OS; assay: cell viability relative to DMSO; higher = less toxic; details: 72 h; 100 nM
Assay Readout: cell viability (%)
Give bare numbers, in %.

# example entries with known answers
COCCOc1ccc2c(c1)ncn2-c1ccc2cccc(N3CCC(N)CC3)c2n1 :: 95.3
CCCC(=O)C1(c2ccccc2)CCN(C(=O)[C@@H](Cc2ccc(OC)cc2)NC(=O)[C@@H](N)Cc2cncn2C)CC1 :: 104
COc1ccc(C2CNC(=O)C2)cc1OC1CCCC1 (configuration not stated) [rolipram] :: 96.1

// batch mode: one cell viability value per listed entry
1. O=C(OC(C(F)(F)F)C(F)(F)F)N1CCN(Cc2cccc(Oc3ccccc3)c2)CC1 [JW-642]
2. Nc1nc(F)nc2c1ncn2[C@@H]1O[C@H](CO)[C@@H](O)[C@@H]1O [fludarabine]
3. CCCC[C@@H](C=O)NC(=O)[C@H](CC(C)C)NC(=O)OCc1ccccc1 [calpeptin]
4. O=C(CN1C2=NCCN2c2ccccc21)c1ccc(-c2ccccc2)cc1
5. O=c1c(-c2ccc(O)cc2)coc2c([C@@H]3O[C@H](CO)[C@@H](O)[C@H](O)[C@H]3O)c(O)ccc12 [puerarin]
6. C[C@]12CC[C@@H]3c4ccc(O)cc4C[C@@H](CCCCCCCCC[S+]([O-])CCCC(F)(F)C(F)(F)F)[C@H]3[C@@H]1CC[C@@H]2O (some centres not stated) [fulvestrant]

Response given:
1: 102; 2: 98.6; 3: 103; 4: 99.1; 5: 96; 6: 102

// batch mode: one cell viability value per listed entry
1. Cc1cnc(CNC(=O)c2c(=O)c3ccc(N4CCCN(C)CC4)nc3n3c2sc2ccccc23)cn1 [CX-5461]
2. CCN1CCN(Cc2ccc(Nc3ncc(F)c(-c4cc(F)c5nc(C)n(C(C)C)c5c4)n3)nc2)CC1 [abemaciclib]
3. CCC(C/C=C/c1ccccc1)(c1ccccc1)N(C)CC1CC1 (configuration not stated) [igmesine]

Response given:
1. 96.9
2. 108
3. 100

Entry source: the supplement of paper PMC13380429
